Origin of measurements: patent US20140315933A1

Target: URAT-1 transporter (Homo sapiens, UniProt Q96S37)
Construct: expressed in transfected cells
Sequence (Q96S37 with tags, fused parts or gaps): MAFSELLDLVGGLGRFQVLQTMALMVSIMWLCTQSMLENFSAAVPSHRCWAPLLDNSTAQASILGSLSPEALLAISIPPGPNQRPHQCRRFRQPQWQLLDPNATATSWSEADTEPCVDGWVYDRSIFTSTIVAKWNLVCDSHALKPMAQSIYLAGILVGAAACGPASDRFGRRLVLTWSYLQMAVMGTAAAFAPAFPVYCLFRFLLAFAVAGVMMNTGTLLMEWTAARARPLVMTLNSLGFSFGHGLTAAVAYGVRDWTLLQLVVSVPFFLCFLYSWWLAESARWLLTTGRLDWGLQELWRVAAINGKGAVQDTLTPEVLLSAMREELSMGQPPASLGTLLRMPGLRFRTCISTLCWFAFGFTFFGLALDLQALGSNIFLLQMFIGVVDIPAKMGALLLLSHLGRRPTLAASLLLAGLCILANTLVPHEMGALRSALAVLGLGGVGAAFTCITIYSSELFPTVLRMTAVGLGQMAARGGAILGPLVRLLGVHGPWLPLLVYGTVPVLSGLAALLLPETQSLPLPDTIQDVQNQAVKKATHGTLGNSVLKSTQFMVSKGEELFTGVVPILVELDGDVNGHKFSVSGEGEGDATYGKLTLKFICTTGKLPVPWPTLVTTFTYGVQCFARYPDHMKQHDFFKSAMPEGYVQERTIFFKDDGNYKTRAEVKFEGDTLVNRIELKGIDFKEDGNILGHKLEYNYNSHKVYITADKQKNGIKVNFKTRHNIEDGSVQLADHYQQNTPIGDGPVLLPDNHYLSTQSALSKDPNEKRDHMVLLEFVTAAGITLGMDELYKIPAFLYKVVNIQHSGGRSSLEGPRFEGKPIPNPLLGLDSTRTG
Assay: URAT-1 inhibitor activity: [14C]-uric acid uptake into CHO-URAT1(L)GFP#8 (CHO#8) cells, scintillation proximity
Assay type: cell-based
pIC50: −log10 of the molar value.
Param threshold (6) applies to pIC50; output rule met when value >= threshold, rule not met when value < threshold.

Exam item: Confirm if pIC50 reported for the molecule Cc1cc(S(=O)(=O)Nc2nncs2)c(F)cc1Oc1ccc(F)c(C#N)c1 is 6 or above.
Marked response: rule not met

Exam item: Confirm if pIC50 reported for the molecule CCc1cc(F)ccc1Oc1ccc(S(=O)(=O)Nc2ncns2)cc1CC is 6 or above.
Marked response: rule met

Exam item: Confirm if pIC50 reported for the molecule N#Cc1cc(S(=O)(=O)Nc2ncns2)ccc1Oc1ccccc1F is 6 or above.
Marked response: rule not met

Exam item: Confirm if pIC50 reported for the molecule O=S(=O)(Nc1ncc(F)s1)c1ccc(Oc2ccc(Cl)cc2C(F)(F)F)c(F)c1 is 6 or above.
Marked response: rule not met

Exam item: Confirm if pIC50 reported for the molecule N#Cc1cc(S(=O)(=O)Nc2ncc(F)s2)ccc1Oc1cc(F)cc(F)c1 is 6 or above.
Marked response: rule not met
